target: Epidermal growth factor receptor (Homo sapiens, UniProt P00533, L858R/T790M)
Sequence (P00533 25-1210 T790M/L858R limits assumed): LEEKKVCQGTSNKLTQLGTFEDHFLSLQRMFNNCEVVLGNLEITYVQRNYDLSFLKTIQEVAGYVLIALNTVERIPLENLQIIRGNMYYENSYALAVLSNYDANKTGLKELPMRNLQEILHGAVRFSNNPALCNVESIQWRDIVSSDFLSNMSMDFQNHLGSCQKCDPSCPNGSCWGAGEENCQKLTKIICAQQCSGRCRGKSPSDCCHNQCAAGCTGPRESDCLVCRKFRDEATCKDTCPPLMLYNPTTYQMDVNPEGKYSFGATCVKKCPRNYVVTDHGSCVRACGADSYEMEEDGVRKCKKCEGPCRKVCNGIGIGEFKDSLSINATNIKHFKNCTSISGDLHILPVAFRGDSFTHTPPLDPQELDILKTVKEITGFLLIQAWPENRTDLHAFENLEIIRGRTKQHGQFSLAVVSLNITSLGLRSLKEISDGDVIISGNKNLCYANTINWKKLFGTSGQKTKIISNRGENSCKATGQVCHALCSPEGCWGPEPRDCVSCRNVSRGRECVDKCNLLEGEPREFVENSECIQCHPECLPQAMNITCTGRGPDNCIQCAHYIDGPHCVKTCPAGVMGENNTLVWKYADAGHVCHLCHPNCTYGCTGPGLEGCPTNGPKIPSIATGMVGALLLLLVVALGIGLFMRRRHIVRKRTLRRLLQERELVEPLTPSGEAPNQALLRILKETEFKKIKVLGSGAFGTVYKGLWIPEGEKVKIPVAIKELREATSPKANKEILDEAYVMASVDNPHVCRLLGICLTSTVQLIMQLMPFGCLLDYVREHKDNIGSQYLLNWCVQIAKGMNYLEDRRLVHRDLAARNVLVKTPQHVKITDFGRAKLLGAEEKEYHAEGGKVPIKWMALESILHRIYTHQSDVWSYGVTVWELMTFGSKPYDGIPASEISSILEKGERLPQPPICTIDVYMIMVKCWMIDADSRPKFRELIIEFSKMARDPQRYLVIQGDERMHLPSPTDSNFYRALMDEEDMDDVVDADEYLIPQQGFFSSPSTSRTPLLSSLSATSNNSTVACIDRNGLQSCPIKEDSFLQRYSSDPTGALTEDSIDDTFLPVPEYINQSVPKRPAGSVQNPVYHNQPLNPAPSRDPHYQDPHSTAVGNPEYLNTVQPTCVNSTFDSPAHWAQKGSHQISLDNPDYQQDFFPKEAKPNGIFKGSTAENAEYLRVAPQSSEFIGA
propertyLabel: IC50 (nM)
Numeric answer only, unit nM assumed.

// solved cases for IC50 follow
INSERT INTO assay_data (molecule, observedresult) VALUES
  ('CCOc1cc2ncnc(Nc3cccc([N+](=O)[O-])c3)c2c2c1OCCO2', 71),
  ('Fc1ccc(Nc2ncnc3cc(OC4CCOC4)c4c(c23)OCCO4)cc1Cl (configuration not stated)', 151),
  ('C#Cc1cccc(Nc2ncnc3cc(OCC)c4c(c23)OCCO4)c1', 21.5);

Let's switch to this molecule now.
# return IC50 of CCOc1cc2ncnc(Nc3ccc(C)c(Cl)c3)c2c2c1OCCO2 (system: Epidermal growth factor receptor (Homo sapiens, UniProt P00533, L858R/T790M))
33.8

---

A set of compounds tested on Epidermal growth factor receptor (Homo sapiens, UniProt P00533, L858R/T790M), with measured IC50:

# return IC50 of CCOC(C)Oc1cc2ncnc(Nc3ccc(OC)c([N+](=O)[O-])c3)c2c2c1OCCO2 (stereo not drawn) (system: Epidermal growth factor receptor (Homo sapiens, UniProt P00533, L858R/T790M))
> 1000 nM

# return IC50 of COc1ccc(Nc2ncnc3cc(OC(C)C)c4c(c23)OCCO4)cc1[N+](=O)[O-] (system: Epidermal growth factor receptor (Homo sapiens, UniProt P00533, L858R/T790M))
> 1000 nM

# return IC50 of CCOC(C)Oc1cc2ncnc(Nc3ccc(F)c(C#N)c3)c2c2c1OCCO2 (stereo not drawn) (system: Epidermal growth factor receptor (Homo sapiens, UniProt P00533, L858R/T790M))
> 1000 nM

---

experiment: Cytotoxicity against HEK293T assessed as reduction in cell viability by MTT assay; format: cell-based, HEK-293T; settings: human, HEK293T cells
Each record here notes measured CC50.
Numeric answer only, unit µM assumed.

// solved cases for CC50 follow
INSERT INTO assay_data (compound, unitabbreviation, observedresult) VALUES
  ('C#Cc1cccc(Nc2ncnc3cc(OCC4CCCO4)c4c(c23)OCCO4)c1 (stereo not given)', 'µM', 40.2),
  ('C#Cc1cccc(Nc2ncnc3cc(OCCOC)c(OCCOC)cc23)c1', 'µM', 28.2),
  ('C#Cc1cccc(Nc2ncnc3cc(OC)c4c(c23)OCCO4)c1', 'µM', 11.7),
  ('CCOc1cc2ncnc(Nc3ccc(F)c(Cl)c3)c2c2c1OCCO2', 'µM', 37);

For the compound CCOc1cc2ncnc(Nc3ccc(C)cc3)c2c2c1OCCO2 , give its reported CC50.
27.4

For the compound COCCOc1cc2ncnc(Nc3ccc(F)cc3)c2c2c1OCCO2 , give its reported CC50.
25.9

For the compound COCCOc1cc2ncnc(Nc3cccc(OC)c3)c2c2c1OCCO2 , give its reported CC50.
20.8

---

pIC50: −log10 of the molar value.
A set of molecules tested on Epidermal growth factor receptor (Homo sapiens, UniProt P00533, L858R/T790M), with measured pIC50:

// solved cases for pIC50 follow
INSERT INTO results (molecule, targetsystem, propertylabel, observedresult) VALUES
  ('Fc1ccc(Nc2ncnc3cc(OCC4CCCO4)c4c(c23)OCCO4)cc1Cl (stereo not drawn)', 'Epidermal growth factor receptor (Homo sapiens, UniProt P00533, L858R/T790M)', 'pIC50', '< 6.00'),
  ('COCCOc1cc2ncnc(Nc3ccc(F)cc3)c2c2c1OCCO2', 'Epidermal growth factor receptor (Homo sapiens, UniProt P00533, L858R/T790M)', 'pIC50', '< 6.00'),
  ('COCCOc1cc2ncnc(Nc3ccc(OC)c([N+](=O)[O-])c3)c2c2c1OCCO2', 'Epidermal growth factor receptor (Homo sapiens, UniProt P00533, L858R/T790M)', 'pIC50', '< 6.00'),
  ('COCCOc1cc2ncnc(Nc3ccc(Cl)c([N+](=O)[O-])c3)c2c2c1OCCO2', 'Epidermal growth factor receptor (Homo sapiens, UniProt P00533, L858R/T790M)', 'pIC50', '< 6.00');

For the molecule CCOC(C)Oc1cc2ncnc(Nc3ccc(C)c(C#N)c3)c2c2c1OCCO2 (stereo not drawn) , give its reported pIC50.
< 6.00

For the molecule C#Cc1cccc(Nc2ncnc3cc(OCCOC)c4c(c23)OCCO4)c1 , give its reported pIC50.
8.09

For the molecule COCCOc1cc2ncnc(Nc3ccc(F)c(Cl)c3)c2c2c1OCCO2 , give its reported pIC50.
7.98

For the molecule CC(C)Oc1cc2ncnc(Nc3ccc(Cl)c([N+](=O)[O-])c3)c2c2c1OCCO2 , give its reported pIC50.
5.88

---

test: Cytotoxicity against HEK293T assessed as reduction in cell viability by MTT assay; assay type: cell-based, HEK-293T; settings: human, HEK293T cells
Each record here notes measured CC50.
Numeric answer only, unit µM assumed.

// solved cases for CC50 follow
INSERT INTO assay_data (entrysmiles, propertylabel, unitabbreviation, observedresult) VALUES
  ('CCOc1cc2ncnc(Nc3cccc(OC)c3)c2c2c1OCCO2', 'CC50', 'µM', 25.3),
  ('C#Cc1cccc(Nc2ncnc3cc(OC(C)C)c4c(c23)OCCO4)c1', 'CC50', 'µM', 22.1);

Let's switch to this molecule now.
For the molecule CCOc1cc2ncnc(Nc3cccc([N+](=O)[O-])c3)c2c2c1OCCO2 , give its reported CC50.
42
